Hello, the source for this data is patent US20220324977A1, in case you need it.

SYSTEM: T1, canine PD-1 protein amino acids 25-168 with His tag (canine, UniProt A0A090BAM7 25-168)
T1 construct: Expressed in Expi293F cells; used as immunogen and as antigen in ELISA and Octet; also called PD-1 His
T1 sequence (A0A090BAM7 entry or part of it limits assumed): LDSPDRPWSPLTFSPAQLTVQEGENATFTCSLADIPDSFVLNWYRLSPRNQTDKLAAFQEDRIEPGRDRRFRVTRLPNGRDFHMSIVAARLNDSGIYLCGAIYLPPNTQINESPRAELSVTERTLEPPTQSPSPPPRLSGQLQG
EXPERIMENT_SUMMARY: ELISA, PD-1 His 100 ng/mL, clone supernatant
Below is a list of entries, each paired with its recorded O.D. determined by ELISA value.
// print number alone

Guide cases for O.D. determined by ELISA, answers given:
>>> reported("PD-1 A-M10 (antibody, mouse IgG1, V domains shown, Mouse IgG1 kappa, hybridoma supernatant; also called 8H01) VH: EVRLQQSGAELVKPGASVKLSCTASGFNIKDTYLHWLKERPEQGLEWIGRIDPAIGNTRYDPKFQVKATITADTSSNTAYLQLSSLTSEDSAVYYCARGFYGMDYWGQGTSVTVSS VL: QIVLTQSPAIMSASPGEKVTMTCSASSSVSYMFWYQQKPGSSPRLWIYDTSNLVSGVPARFSGSRSGTSYSLTISSMEAEDAATYYCQQYSGYPYTFGGGTKLEIK")
2.83
>>> reported("PD-1 A-M11 (antibody, V domains shown, Mouse IgG1 kappa, hybridoma supernatant; The VL is therefore uncertain; also called 9B04) VH: EVQLQQSGAEVVKPGASVKLSCTASGFNIKDTYMHWVKQRPEQGLEWIGRIDPAIGNPKYDPKFQGRATITADTSSNTAYLQLSSLTSEDTAVYYCASGFYAMDCWGQGTSVTVSS VL: QIVLTQSPAIMSASPGEKVTMTCSASSSITYMFWYQQKPGSSPRLWIYDTSNLVSGVPARFSGSKSGTSYSLTITSMEAEDAATYYCQQYSGYPSTFGSGTKLEIK")
2.66

Proceeding to the next binder to report its O.D. determined by ELISA.
query: Returns the measured O.D. determined by ELISA for the input binder. Input: PD-1 A-M1 (antibody, mouse IgG1, V domains shown, Mouse IgG1 kappa, tested as hybridoma supernatant; also called 2C08) VH: EVQLQQSGAELVKPGASVKLSCTASGFNIKDTYMHWVKQRPEQGLEWIGRIDPAIDNTKYDPKFQGKATITADTSSNTAYLQLSSLTSEDTAVYYCASGFYTMDYWGQGTSVTVSS VL: QIVLTQSPAIMSASPGEKVTMTCSASSSVTYMYWFQQKPGSSPRLWIYDTSNLVSGVPARFSGSRSGTSYSLTISSMEAEDAATYYCQQYSGHPSSFGSGTKLEIK
result: 2.65
